From: patent US5332731A

Reported MIC values are given for each entry in this list.
- Tested on: Escherichia coli 255/S-1
- test_description: antibacterial activity, MIC by standard serial dilution method
- Format: cell-based
- settings: 255/S1
readout_kind: MIC (µg/mL)

{"compound": "CO/N=C(\\C(=O)NC1C(=O)N2C(C(=O)O)=C(SC3COCOC3)CSC12)c1csc(N)n1 (centres unmarked)", "study_system": "Escherichia coli 255/S-1", "endpoint_result": 0.39}
{"compound": "Nc1nc(/C(=N/O)C(=O)NC2C(=O)N3C(C(=O)O)=C(SC4CCOC4)CS[C@H]23)cs1 (some centres unmarked)", "study_system": "Escherichia coli 255/S-1", "endpoint_result": 0.39}
{"compound": "CO/N=C(\\C(=O)NC1C(=O)N2C(C(=O)O)=C(SCC3CCCCO3)CS[C@H]12)c1csc(N)n1 (some centres unmarked)", "study_system": "Escherichia coli 255/S-1", "endpoint_result": 3.13}
{"compound": "Nc1nc(/C(=N/O)C(=O)NC2C(=O)N3C(C(=O)O)=C(SC4COCOC4)CS[C@H]23)cs1 (some centres unmarked)", "study_system": "Escherichia coli 255/S-1", "endpoint_result": 0.2}
{"compound": "CO/N=C(\\C(=O)NC1C(=O)N2C(C(=O)O)=C(SCC3CCOC3)CS[C@H]12)c1csc(N)n1 (some centres unmarked)", "study_system": "Escherichia coli 255/S-1", "endpoint_result": 0.78}
{"compound": "Nc1nc(/C(=N/O)C(=O)NC2C(=O)N3C(C(=O)O)=C(SCC4CCOCC4)CS[C@H]23)cs1 (some centres unmarked)", "study_system": "Escherichia coli 255/S-1", "endpoint_result": 3.13}
{"compound": "CO/N=C(\\C(=O)NC1C(=O)N2C(C(=O)O)=C(SCC3COC(C)(C)O3)CS[C@H]12)c1csc(N)n1 (some centres unmarked)", "study_system": "Escherichia coli 255/S-1", "endpoint_result": 3.13}
{"compound": "CO/N=C(\\C(=O)NC1C(=O)N2C(C(=O)O)=C(SC3CCOC3)CS[C@H]12)c1csc(N)n1 (some centres unmarked)", "study_system": "Escherichia coli 255/S-1", "endpoint_result": 0.39}
{"compound": "CC1(C)OCCC(CSC2=C(C(=O)O)N3C(=O)C(NC(=O)/C(=N\\O)c4csc(N)n4)[C@H]3SC2)O1 (some centres unmarked)", "study_system": "Escherichia coli 255/S-1", "endpoint_result": 6.25}
{"compound": "Nc1nc(/C(=N/O)C(=O)NC2C(=O)N3C(C(=O)O)=C(SC4CCOCC4)CS[C@H]23)cs1 (some centres unmarked)", "study_system": "Escherichia coli 255/S-1", "endpoint_result": 0.39}
{"compound": "CO/N=C(\\C(=O)NC1C(=O)N2C(C(=O)O)=C(SCC3CCCO3)CS[C@H]12)c1csc(N)n1 (some centres unmarked)", "study_system": "Escherichia coli 255/S-1", "endpoint_result": 0.78}
{"compound": "CO/N=C(\\C(=O)NC1C(=O)N2C(C(=O)O)=C(SC3CCOCC3)CS[C@H]12)c1csc(N)n1 (some centres unmarked)", "study_system": "Escherichia coli 255/S-1", "endpoint_result": 0.78}
{"compound": "CO/N=C(\\C(=O)NC1C(=O)N2C(C(=O)O)=C(SCC3CCOCC3)CS[C@H]12)c1csc(N)n1 (some centres unmarked)", "study_system": "Escherichia coli 255/S-1", "endpoint_result": 1.56}
{"compound": "CO/N=C(\\C(=O)NC1C(=O)N2C(C(=O)O)=C(SCC3COCO3)CS[C@H]12)c1csc(N)n1 (some centres unmarked)", "study_system": "Escherichia coli 255/S-1", "endpoint_result": 0.39}
